{"Compound": "Cc1cc(C(=O)O)oc1C", "melting point": "146 to 148 °C"}
{"Compound": "N=C1NC(=N)c2ccccc21", "melting point": "190 °C"}
{"Compound": "S=C=NCc1ccc(Cl)cc1Cl", "melting point": "26 to 28 °C"}
{"Compound": "Sc1c(Cl)c(Cl)c(Cl)c(Cl)c1Cl", "melting point": "232 °C"}
{"Compound": "CCCCCCCc1ccccc1", "melting point": "-48 °C"}
{"Compound": "CC(=O)c1c(O)c(C)c(O)c(Cc2c(O)c3c(c(C(=O)C=Cc4ccccc4)c2O)OC(C)(C)C=C3)c1O", "melting point": "212 °C"}
{"Compound": "CCOC(=O)c1c(N)sc2c1CCN(Cc1ccccc1)C2", "melting point": "112 °C"}
{"Compound": "Clc1ccc2c(c1)c1cc(Cl)ccc1n2CC1CO1 (configuration not stated)", "melting point": "143 to 144 °C"}
{"Compound": "Cc1ccc(O)c(Cl)c1C", "melting point": "27 °C"}
{"Compound": "COc1cc(/C=C/c2ccc([N+](=O)[O-])cc2[N+](=O)[O-])ccc1O", "melting point": "191 °C"}
{"Compound": "C[C@H](O)CC[C@H](C)O", "melting point": "53 °C"}
{"Compound": "CCOc1ccc(-c2nnc3n2NC(c2ccc(OC)cc2)S3)cc1 (configuration not stated)", "melting point": "198 to 200 °C"}

* * *

{"Compound": "O=CF", "melting point [°C]": -142}
{"Compound": "Nc1ncnc2c1ncn2CCCNC(=O)c1cc([N+](=O)[O-])cc([N+](=O)[O-])c1", "melting point [°C]": 234}
{"Compound": "Cc1ccc(-c2csc(/C(C#N)=N\\Nc3cccc(C)c3)n2)cc1", "melting point [°C]": 132}
{"Compound": "O=C(Nc1ccccc1)C(=O)Nc1ccccc1", "melting point [°C]": 254}
{"Compound": "Cn1c(S)nnc1-c1ccccc1", "melting point [°C]": 188}
{"Compound": "C1CCC(CCC2CCCCC2)CC1", "melting point [°C]": 11.5}
{"Compound": "Cc1cccc(S)c1", "melting point [°C]": -20}
{"Compound": "Cc1cccc(Cl)c1N", "melting point [°C]": 2}
{"Compound": "CCCCCCCCCCCCCCCc1cccc(O)c1", "melting point [°C]": 53.5}
{"Compound": "C1CCCCCCCC1", "melting point [°C]": 11}
{"Compound": "CCOC(=O)/C(C#N)=C(/c1ccc([N+](=O)[O-])cc1)C(C(=O)OCC)C(=O)OCC", "melting point [°C]": 110}
{"Compound": "Nc1c(OC2C=CC(N3CCCCCC3=O)=CC2)cc(O)c2c1C(=O)c1ccccc1C2=O (configuration not stated)", "melting point [°C]": 164}
{"Compound": "NC(=O)/C(=N\\Nc1ccc(F)cc1)c1nc2ccccc2s1", "melting point [°C]": 158}
{"Compound": "COc1nc(C)nc(N)n1", "melting point [°C]": 260}
{"Compound": "CC1C(=O)C23C(O)CC4C(C)(CO)CCCC4(CO)C2C(O)CC1C3O (configuration not stated)", "melting point [°C]": 266}
{"Compound": "Cc1cc(=O)n(N)c(=S)[nH]1", "melting point [°C]": 262}
{"Compound": "CCCCCCCCCCCCl", "melting point [°C]": -17}
{"Compound": "C#CCCC#C", "melting point [°C]": -6}
{"Compound": "O=C(O)c1ccncc1", "melting point [°C]": 315}
{"Compound": "CC(C)(CO)[N+](=O)[O-]", "melting point [°C]": 89.5}
{"Compound": "c1ccc(-c2nc3ccccc3nc2-c2cccc3ccccc23)cc1", "melting point [°C]": 138}
{"Compound": "Cc1cc(O)c(C(C)C)cc1C1(c2cc(C(C)C)c(O)cc2C)OS(=O)(=O)c2ccccc21", "melting point [°C]": 221}
{"Compound": "CS(=O)(=O)CC(=O)O", "melting point [°C]": 117}
{"Compound": "O=C1OS(=O)(=O)c2ccccc21", "melting point [°C]": 130}
{"Compound": "CC(=O)OC1CCC2C3CCC4CC(C(C)=O)CCC4(C)C3CCC12C (configuration not stated)", "melting point [°C]": 140}
{"Compound": "CC1(C)OC(C)(C(O)C2CCCCC2)CCC1C(=O)O (configuration not stated)", "melting point [°C]": 181}
{"Compound": "O=C(O)C1(C2=CCCCC2)CCCCC1", "melting point [°C]": 79}
{"Compound": "CC12C=CC(=O)C=C1CCC1C2C(O)CC2(C)C1CCC2(O)C(=O)COC(=O)CCCc1ccc(N(CCCl)CCCl)cc1 (configuration not stated)", "melting point [°C]": 164}
{"Compound": "CCCCCCCCCCCCCCCCCCCCCC1CCCC1", "melting point [°C]": 42}
{"Compound": "O=CC(Cl)=C(Cl)C(=O)O", "melting point [°C]": 127}
{"Compound": "Cc1cc(Cl)c(Cl)c(Cl)c1", "melting point [°C]": 45.5}
{"Compound": "O=C1OCCOC(=O)c2ccccc2C(=O)OCCOC(=O)c2ccccc21", "melting point [°C]": 192}
{"Compound": "ClCCc1ccccc1", "melting point [°C]": -60}
{"Compound": "Cc1[nH]c2cc(C(=O)O)ccc2c1C", "melting point [°C]": 150}
{"Compound": "N#CC1CCCC1", "melting point [°C]": -76}
{"Compound": "C[Si](C)(Oc1ccccc1)Oc1ccccc1", "melting point [°C]": -23}
{"Compound": "CCC(=O)CC#N", "melting point [°C]": 29}
{"Compound": "CCCC1C(=O)C2(C)CCC1C2(C)C (configuration not stated)", "melting point [°C]": 128}
{"Compound": "N#CCc1ccc(OCc2ccccc2)c(OCc2ccccc2)c1", "melting point [°C]": 80}

* * *

Collected melting point values appear next to each entry.
Reported endpoint: melting point (°C)

{"Compound": "CCOC(=O)C1(c2cccc(O)c2)CCN(C)CC1", "Test result": 110}
{"Compound": "CCOc1n[nH]c(=O)c(Br)c1Br", "Test result": 206}
{"Compound": "O=[N+]([O-])c1ccccc1/C=C/c1nc2ccccc2s1", "Test result": 131}
{"Compound": "COc1cc(CO)cc(Cl)c1O", "Test result": 117}
{"Compound": "CCc1c[nH]c(=O)[nH]c1=O", "Test result": 309}
{"Compound": "COc1ccc(C2C(C#N)=C(N)Oc3[nH]nc(C(F)(F)F)c32)cc1 (stereo not drawn)", "Test result": 204}
{"Compound": "COc1cc(F)c(F)cc1OC", "Test result": 40}
{"Compound": "Cc1nccc2c1[nH]c1ccccc12", "Test result": 236}
{"Compound": "O=C(O)c1cc(F)ccc1C(F)(F)F", "Test result": 82}
{"Compound": "Oc1ccc(Cl)cc1Br", "Test result": 33}
{"Compound": "O=C(/C(=N/Nc1cccnc1)C(=O)C(F)(F)F)c1cccs1", "Test result": 150}
{"Compound": "COC(=O)c1ccc(Br)cn1", "Test result": 101}
{"Compound": "N#C/C(=C\\c1c(Cl)cccc1Cl)c1nc(-c2ccccc2)cs1", "Test result": 96}
{"Compound": "CC(C)C(c1ccccc1)C(C)C", "Test result": -24.5}
{"Compound": "Cc1ccc(C(c2ccc(C)o2)c2cc(I)cc(I)c2O)o1", "Test result": 143}
{"Compound": "CC(=O)Oc1ccc2c3c1OC1C(OC(C)=O)C=CC4C(C2)N(C)CCC341 (stereo not drawn)", "Test result": 173}
{"Compound": "CC(CCl)OC(C)CCl (stereo not drawn)", "Test result": -97}
{"Compound": "Nc1cc(F)ccc1O", "Test result": 140}

* * *

Entry class follows melting point: low interval: < 100 °C; middle interval: ≥ 100 °C and < 200 °C; high interval: ≥ 200 °C

{"Smiles repr": "Oc1ccc(C(F)(F)F)cc1", "Class assignment": "low interval"}
{"Smiles repr": "CCOC(=O)c1nnsc1N", "Class assignment": "middle interval"}
{"Smiles repr": "Cn1cnc(C(=O)O)c1", "Class assignment": "high interval"}
{"Smiles repr": "Clc1ccc(Cl)c(-c2nnn[nH]2)c1", "Class assignment": "middle interval"}
{"Smiles repr": "CC(C)Nc1cccnc1N1CCN(C(=O)c2cc3cc(NS(C)(=O)=O)ccc3[nH]2)CC1", "Class assignment": "high interval"}
{"Smiles repr": "O=C1C(=Cc2ccccc2)Cc2ccccc21", "Class assignment": "middle interval"}
{"Smiles repr": "CC(=O)n1c2ccccc2c2cc3ccccc3nc21", "Class assignment": "middle interval"}
{"Smiles repr": "O=S1(=O)Cc2ncc3ccccc3c2C1", "Class assignment": "high interval"}
{"Smiles repr": "CCOc1ccc(OCC)c(N)c1", "Class assignment": "low interval"}
